B1: Pistol ribozyme (parent)
chain: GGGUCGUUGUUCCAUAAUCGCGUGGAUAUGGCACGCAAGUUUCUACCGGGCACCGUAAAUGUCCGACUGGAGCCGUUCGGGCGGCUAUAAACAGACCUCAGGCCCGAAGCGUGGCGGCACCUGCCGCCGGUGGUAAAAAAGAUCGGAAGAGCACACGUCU

variants of: B1; assay: aptazyme ON/OFF ratio, guanine; higher = stronger switching; co-transcriptional cleavage with and without guanine
Assay endpoint: aptazyme ON/OFF ratio

U7C U8G G9C U10G U11A C12G: 1.24
U7C U8G G9C U10A U11A C12A C13A: 1.13
U8G U10C U11A C12G C13A: 1.07
U7A G9A U10G U11A C12A: 1.17
U7A U8A G9A U11G C12G: 1.3
U7A U8G G9C U10A U11C C13G: 1.04

Now, please, on to the next variant.
U7A U8G U10A C12U C13A yielded aptazyme ON/OFF ratio of 1.32
